# targetDesc: CDK2/Cyclin E (Homo sapiens, UniProt P24941)
# measurementNotes: CDK2/CyclinE kinase assay (Nanosyn, Caliper microfluidic)
# appliedConditions: 12-point dose-response, ATP at Km (100 μM), 0.28 nM enzyme, 1 hr
observable: pIC50
As a rule, pIC50 stands for the negative log10 of the concentration, concentration in M.

Look over these answered cases.
{"columns": ["compound", "targetDesc", "pIC50"],
 "data": [
  ["CC1=NCC2(CCCCC2)n2c1cc1cnc(Nc3ccc(N4CCN(C)CC4)cn3)nc12 [Compound 9]", "CDK2/Cyclin E (Homo sapiens, UniProt P24941)", 5.52],
  ["CN1CCN(c2ccc(Nc3ncc4cc5n(c4n3)C3(CCCCC3)CN=C5)nc2)CC1 [Compound 1]", "CDK2/Cyclin E (Homo sapiens, UniProt P24941)", 7.21],
  ["CN1CCN(c2ccc(Nc3ncc4cc5n(c4n3)C3(CCCCC3)CNC5)nc2)CC1 [Compound 2]", "CDK2/Cyclin E (Homo sapiens, UniProt P24941)", 5.24]
]}

GET /values?readout=pIC50&item= CN1CCN(c2ccc(Nc3ncc4cc5n(c4n3)C3(CCOCC3)CN=C5)nc2)CC1 [Compound 10]
5.30

GET /values?readout=pIC50&item= CO[C@H]1CC[C@]2(CC1)CN=Cc1cc3cnc(Nc4ccc(N5CCN(C)CC5)cn4)nc3n12 [Compound 12]
5.15

GET /values?readout=pIC50&item= CO[C@H]1CC[C@@]2(CC1)CN=Cc1cc3cnc(Nc4ccc(N5CCN(C)CC5)cn4)nc3n12 [Compound 13]
5.52

GET /values?readout=pIC50&item= CN1CCN(c2ccc(Nc3ncc4cc5n(c4n3)C3(CCCCC3)CN=C5Nc3ccccc3)nc2)CC1 [Compound 4]
4.26

----------
# targetDesc: CDK6/Cyclin D3 (Homo sapiens, UniProt Q00534)
# Sequence (Q00534 whole entry): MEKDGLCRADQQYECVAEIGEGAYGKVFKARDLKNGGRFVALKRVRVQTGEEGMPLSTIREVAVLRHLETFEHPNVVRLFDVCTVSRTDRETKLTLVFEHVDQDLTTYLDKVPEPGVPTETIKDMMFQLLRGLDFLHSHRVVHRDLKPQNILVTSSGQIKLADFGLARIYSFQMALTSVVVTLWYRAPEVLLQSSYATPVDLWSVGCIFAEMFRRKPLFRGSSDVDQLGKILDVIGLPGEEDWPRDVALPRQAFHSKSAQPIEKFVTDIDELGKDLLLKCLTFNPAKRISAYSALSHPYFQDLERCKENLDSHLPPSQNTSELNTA
# Sequence (P30281 whole entry partner): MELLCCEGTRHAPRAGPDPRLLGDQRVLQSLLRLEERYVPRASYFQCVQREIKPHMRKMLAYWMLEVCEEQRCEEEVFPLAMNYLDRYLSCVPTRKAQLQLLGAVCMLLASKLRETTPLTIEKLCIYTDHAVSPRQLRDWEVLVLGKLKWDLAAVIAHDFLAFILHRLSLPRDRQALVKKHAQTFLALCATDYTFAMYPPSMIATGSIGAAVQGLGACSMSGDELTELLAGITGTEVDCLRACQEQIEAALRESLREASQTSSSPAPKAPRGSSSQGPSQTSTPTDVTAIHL
# measurementNotes: CDK6/Cyclin D3 kinase assay
# Experimental: [The procedure below names another target; the source lists this target under the same test.] Selected compounds disclosed herein were tested in CDK4/cyclinD1, CDK2/CycA and CDK2/cyclinE kinase assays by Nanosyn (Santa Clara, Calif.) to determine their inhibitory effect on these CDKs. The assays were performed using microfluidic kinase detection technology (Caliper Assay Platform). The compounds were tested in 12-point dose-response format in singlicate at Km for ATP. […]
observable: IC50 (nM)
The reply should be a number in nM, with the unit left off.

{"columns": ["compound", "targetDesc", "readingUnit", "IC50"],
 "data": [
  ["CO[C@H]1CC[C@]2(CC1)CN=Cc1cc3cnc(Nc4ccc(N5CCN(C)CC5)cn4)nc3n12 [Compound 12]", "CDK6/Cyclin D3 (Homo sapiens, UniProt Q00534)", "nM", 100],
  ["CC1=NCC2(CCCCC2)n2c1cc1cnc(Nc3ccc(N4CCN(C)CC4)cn3)nc12 [Compound 9]", "CDK6/Cyclin D3 (Homo sapiens, UniProt Q00534)", "nM", 24],
  ["CN1CCN(c2ccc(Nc3ncc4cc5n(c4n3)C3(CCCCC3)CN=C5NCc3ccccc3)nc2)CC1 [Compound 5]", "CDK6/Cyclin D3 (Homo sapiens, UniProt Q00534)", "nM", 390]
]}

GET /values?readout=IC50&item= CN1CCN(c2ccc(Nc3ncc4cc5n(c4n3)C3(CCCCC3)CN=C5)nc2)CC1 [Compound 1]
3

----------
# targetDesc: CDK4/Cyclin D1 (Homo sapiens)
# measurementNotes: CDK4/CyclinD1 kinase assay (Nanosyn, Caliper microfluidic)
# appliedConditions: 12-point dose-response, ATP at Km (200 μM), 1 nM enzyme, 10 hr
observable: IC50 (µM)
The reply should be a number in µM, with the unit left off.

Look over these answered cases.
{"columns": ["chemicalString", "testResult"],
 "data": [
  ["CC1=NCC2(CCCCC2)n2c1cc1cnc(Nc3ccc(N4CCN(C)CC4)cn3)nc12", 0.096],
  ["CN1CCN(c2ccc(Nc3ncc4cc5n(c4n3)C3(CCCCC3)CN=C5NCc3ccccc3)nc2)CC1", 0.16],
  ["CN1CCN(c2ccc(Nc3ncc4cc5n(c4n3)C3(CCCCC3)CNC5)nc2)CC1", 0.029]
]}

GET /values?readout=IC50&item= CN1CCN(c2ccc(Nc3ncc4cc5n(c4n3)C3(CCOCC3)CN=C5)nc2)CC1
0.04

----------
# targetDesc: CDK9/Cyclin T (Homo sapiens, UniProt P50750)
# Sequence (P50750 whole entry): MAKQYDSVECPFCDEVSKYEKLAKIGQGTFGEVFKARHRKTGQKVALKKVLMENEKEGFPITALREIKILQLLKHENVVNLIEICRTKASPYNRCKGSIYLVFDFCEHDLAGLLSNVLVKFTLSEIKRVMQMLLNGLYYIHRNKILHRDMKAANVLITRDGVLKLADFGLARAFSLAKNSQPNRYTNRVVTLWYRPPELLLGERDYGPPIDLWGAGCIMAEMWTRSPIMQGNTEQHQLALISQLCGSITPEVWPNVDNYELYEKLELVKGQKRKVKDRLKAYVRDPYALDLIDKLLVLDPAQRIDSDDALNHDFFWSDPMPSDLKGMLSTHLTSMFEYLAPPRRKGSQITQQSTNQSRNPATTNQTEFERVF
# Sequence (O60563 whole entry partner): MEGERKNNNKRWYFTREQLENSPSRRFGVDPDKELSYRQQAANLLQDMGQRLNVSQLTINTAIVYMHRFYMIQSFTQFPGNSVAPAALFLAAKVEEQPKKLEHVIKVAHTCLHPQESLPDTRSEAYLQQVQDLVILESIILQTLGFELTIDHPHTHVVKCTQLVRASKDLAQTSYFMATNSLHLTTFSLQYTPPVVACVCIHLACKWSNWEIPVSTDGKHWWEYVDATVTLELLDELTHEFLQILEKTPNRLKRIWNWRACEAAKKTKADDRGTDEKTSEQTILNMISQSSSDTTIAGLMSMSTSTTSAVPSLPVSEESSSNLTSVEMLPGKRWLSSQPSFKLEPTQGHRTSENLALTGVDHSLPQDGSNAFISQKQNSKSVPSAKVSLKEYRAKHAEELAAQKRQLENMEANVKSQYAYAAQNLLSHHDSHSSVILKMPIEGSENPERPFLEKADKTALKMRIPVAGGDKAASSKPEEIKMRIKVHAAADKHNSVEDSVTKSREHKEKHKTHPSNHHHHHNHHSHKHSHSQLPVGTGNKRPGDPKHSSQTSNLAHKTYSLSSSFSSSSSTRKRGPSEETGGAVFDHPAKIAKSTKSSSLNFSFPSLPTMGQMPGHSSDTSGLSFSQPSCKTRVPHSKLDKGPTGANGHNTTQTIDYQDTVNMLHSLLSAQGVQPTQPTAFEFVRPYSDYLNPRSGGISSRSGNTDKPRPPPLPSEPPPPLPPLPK
# measurementNotes: CDK9/Cyclin T kinase assay
observable: log10 of IC50 (log10 of the value in nM)
// do not treat as linear: log10 of IC50, unit nM

Look over these answered cases.
{"columns": ["chemicalString", "log10 of IC50"],
 "data": [
  ["CO[C@H]1CC[C@@]2(CC1)CN=Cc1cc3cnc(Nc4ccc(N5CCN(C)CC5)cn4)nc3n12", 2.95],
  ["CC1=NCC2(CCCCC2)n2c1cc1cnc(Nc3ccc(N4CCN(C)CC4)cn3)nc12", 3.40],
  ["CN1CCN(c2ccc(Nc3ncc4cc5n(c4n3)C3(CCCCC3)CN=C5Nc3ccccc3)nc2)CC1", 3.20]
]}

Please find the next compound below.
GET /values?readout=log10 of IC50&item= CN1CCN(c2ccc(Nc3ncc4cc5n(c4n3)C3(CCCCC3)CN=C5)nc2)CC1
1.98

----------
# targetDesc: CDK2/Cyclin A (Homo sapiens, UniProt P24941)
# measurementNotes: CDK2/CyclinA kinase assay (Nanosyn, Caliper microfluidic)
# appliedConditions: 12-point dose-response, ATP at Km (50 μM), 0.2 nM enzyme, 3 hr
observable: IC50 (µM)
The reply should be a number in µM, with the unit left off.

Look over these answered cases.
{"columns": ["molecule", "observable", "testResult"],
 "data": [
  ["CO[C@H]1CC[C@]2(CC1)CN=Cc1cc3cnc(Nc4ccc(N5CCN(C)CC5)cn4)nc3n12 [Compound 12]", "IC50", 10],
  ["CN1CCN(c2ccc(Nc3ncc4cc5n(c4n3)C3(CCCCC3)CNC5)nc2)CC1 [Compound 2]", "IC50", 12.9],
  ["CN1CCN(c2ccc(Nc3ncc4cc5n(c4n3)C3(CCOCC3)CN=C5)nc2)CC1 [Compound 10]", "IC50", 7]
]}

GET /values?readout=IC50&item= CN1CCN(c2ccc(Nc3ncc4cc5n(c4n3)C3(CCCCC3)CN=C5Nc3ccccc3)nc2)CC1 [Compound 4]
24.6

GET /values?readout=IC50&item= CO[C@H]1CC[C@@]2(CC1)CN=Cc1cc3cnc(Nc4ccc(N5CCN(C)CC5)cn4)nc3n12 [Compound 13]
4

GET /values?readout=IC50&item= CN1CCN(c2ccc(Nc3ncc4cc5n(c4n3)C3(CCCCC3)CN=C5NCc3ccccc3)nc2)CC1 [Compound 5]
70.7

GET /values?readout=IC50&item= CC1=NCC2(CCCCC2)n2c1cc1cnc(Nc3ccc(N4CCN(C)CC4)cn3)nc12 [Compound 9]
3.7

GET /values?readout=IC50&item= CN1CCN(c2ccc(Nc3ncc4cc5n(c4n3)C3(CCCCC3)CN=C5)nc2)CC1 [Compound 1]
0.187

----------
# targetDesc: CDK4/Cyclin D1 (Homo sapiens, UniProt P11802)
# Sequence (P11802 whole entry): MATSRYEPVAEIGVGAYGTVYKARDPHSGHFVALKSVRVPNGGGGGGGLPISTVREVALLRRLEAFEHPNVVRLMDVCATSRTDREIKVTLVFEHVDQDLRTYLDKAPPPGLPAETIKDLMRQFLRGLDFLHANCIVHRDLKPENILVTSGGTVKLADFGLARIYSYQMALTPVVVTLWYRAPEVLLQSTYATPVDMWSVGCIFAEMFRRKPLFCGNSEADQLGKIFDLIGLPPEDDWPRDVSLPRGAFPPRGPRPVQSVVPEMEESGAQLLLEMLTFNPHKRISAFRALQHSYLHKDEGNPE
# Sequence (P24385 whole entry partner): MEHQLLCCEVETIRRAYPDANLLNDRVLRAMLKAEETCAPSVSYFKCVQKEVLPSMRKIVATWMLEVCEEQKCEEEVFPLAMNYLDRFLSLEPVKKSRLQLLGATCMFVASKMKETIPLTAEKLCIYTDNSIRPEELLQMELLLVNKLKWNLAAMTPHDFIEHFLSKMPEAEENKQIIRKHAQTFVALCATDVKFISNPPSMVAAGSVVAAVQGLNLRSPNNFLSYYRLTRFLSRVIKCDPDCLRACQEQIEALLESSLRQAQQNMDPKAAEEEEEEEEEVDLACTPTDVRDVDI
# measurementNotes: CDK4/CyclinD1 kinase assay (Nanosyn, Caliper microfluidic)
# Assay type: biochemical
# appliedConditions: 12-point dose-response, ATP at Km (200 μM), 1 nM enzyme, 10 hr
# Procedure: Selected compounds disclosed herein were tested in CDK4/cyclinD1, CDK2/CycA and CDK2/cyclinE kinase assays by Nanosyn (Santa Clara, Calif.) to determine their inhibitory effect on these CDKs. The assays were performed using microfluidic kinase detection technology (Caliper Assay Platform). The compounds were tested in 12-point dose-response format in singlicate at Km for ATP. […]
Measured pIC50 by item
As a rule, pIC50 stands for the negative log10 of the concentration, concentration in M.

Look over these answered cases.
{"columns": ["chemicalString", "pIC50"],
 "data": [
  ["CN1CCN(c2ccc(Nc3ncc4cc5n(c4n3)C3(CCCCC3)CN=C5Nc3ccccc3)nc2)CC1", 7.57],
  ["CN1CCN(c2ccc(Nc3ncc4cc5n(c4n3)C3(CCCCC3)CN=C5)nc2)CC1", 9.00]
]}

GET /values?readout=pIC50&item= CO[C@H]1CC[C@]2(CC1)CN=Cc1cc3cnc(Nc4ccc(N5CCN(C)CC5)cn4)nc3n12
7.40

GET /values?readout=pIC50&item= CO[C@H]1CC[C@@]2(CC1)CN=Cc1cc3cnc(Nc4ccc(N5CCN(C)CC5)cn4)nc3n12
8.05

GET /values?readout=pIC50&item= CCCNC1=NCC2(CCCCC2)n2c1cc1cnc(Nc3ccc(N4CCN(C)CC4)cn3)nc12
6.13

----------
# targetDesc: CDK6/Cyclin D3 (Homo sapiens, UniProt Q00534)
# measurementNotes: CDK6/Cyclin D3 kinase assay
observable: log10 IC50 (log10 of the value in nM)
// do not treat as linear: log10 of IC50, unit nM

Look over these answered cases.
{"columns": ["chemicalString", "log10 IC50"],
 "data": [
  ["CN1CCN(c2ccc(Nc3ncc4cc5n(c4n3)C3(CCOCC3)CN=C5)nc2)CC1", 1.85],
  ["CN1CCN(c2ccc(Nc3ncc4cc5n(c4n3)C3(CCCCC3)CNC5)nc2)CC1", 1.95]
]}

GET /values?readout=log10 IC50&item= CO[C@H]1CC[C@@]2(CC1)CN=Cc1cc3cnc(Nc4ccc(N5CCN(C)CC5)cn4)nc3n12
1.30

GET /values?readout=log10 IC50&item= CCCNC1=NCC2(CCCCC2)n2c1cc1cnc(Nc3ccc(N4CCN(C)CC4)cn3)nc12
3.10

GET /values?readout=log10 IC50&item= CN1CCN(c2ccc(Nc3ncc4cc5n(c4n3)C3(CCCCC3)CN=C5Nc3ccccc3)nc2)CC1
1.79

All figures here come from patent US10618905B2.
